IC50 values, listed per item
# target: human orexin-2 receptor (Homo sapiens (Human), UniProt O43614)
# Sequence (O43614 whole entry): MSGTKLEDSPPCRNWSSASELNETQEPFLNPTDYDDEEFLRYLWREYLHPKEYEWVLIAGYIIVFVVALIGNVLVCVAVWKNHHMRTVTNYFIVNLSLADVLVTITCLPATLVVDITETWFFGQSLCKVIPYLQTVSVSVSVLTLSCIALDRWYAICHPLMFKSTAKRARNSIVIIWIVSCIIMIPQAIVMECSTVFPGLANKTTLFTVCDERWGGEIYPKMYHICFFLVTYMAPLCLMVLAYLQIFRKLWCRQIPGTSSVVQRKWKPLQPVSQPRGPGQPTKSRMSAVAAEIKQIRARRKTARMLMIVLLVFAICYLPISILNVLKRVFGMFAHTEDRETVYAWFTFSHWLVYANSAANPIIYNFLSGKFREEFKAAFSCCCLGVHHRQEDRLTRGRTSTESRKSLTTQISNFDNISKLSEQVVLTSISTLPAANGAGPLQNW
# protocol_notes: In vitro assay: intracellular calcium measurements (FLIPR), antagonistic activity
# condition_parameters: CHO cells expressing human orexin-2 receptor, orexin-A agonist, geometric mean, read-out: IC50 Ox2

# smiles_structure, IC50 [nM]
records = [
    ("Cc1nc(C(=O)N2CC[C@H](C)[C@H]2c2nc3cc(C)c(C)cc3[nH]2)c(-c2ccc(F)cc2)s1", 2350),
    ("C=C1C[C@@H](c2nc3cc(C(C)(C)C)ccc3[nH]2)N(C(=O)c2cc(C(F)(F)F)ccc2-n2nccn2)C1", 54),
    ("Cc1ccc(-c2ccccc2F)c(C(=O)N2CCC[C@@]2(C)c2nc3cc(C)c(C)cc3n2CCF)c1", 60),
    ("C=C1C[C@@H](c2nc3cc(C)c(C)cc3[nH]2)N(C(=O)c2cc(C)c(C)cc2-n2nccn2)C1", 2),
]
